target: T1, recombinant human RON SEMA and PSI domains (human, UniProt Q04912 25-571)
T1 construct: domain: SEMA+PSI; Commercial protein (R&D Systems); also called rhRON SEMA+PSI; hRON SEMA+PSI
measurementProtocol: SPR, purified Ab captured on anti-human IgG Fc, 37 C
Quick list: koff per entry.

binder	unitAbbreviation	koff
Sh07F01-43 (antibody, human IgG1, kappa, V domains shown, Humanized, human IgG1/kappa: Sh07F01 Hv3-48 IgG1 + HE L 07F01 Kv1-9 Kappa) VH: EVQLVESGGGLVQPGGSLRLSCAASGFDFSRHWMSWVRQAPGKGLEWVSEINPDSRTINYTPSLKERFTISRDNAKNSLYLQMNSLRAEDTAVYYCARRVRIHYYGAMDSWGQGTTVTVSS VL: DIQLTQSQSFVSTSVGDRVTVTCRASQNVGSSLVWYQQKPGKSPKTLIYSASFLYSGVPSRFSGSGSGTEFTLTISSVQPEDFADYFCQQYNNYPLTFGGGTKVEIKR	s⁻¹	0.00056
Sh29B06-78 (antibody, human IgG1, kappa, V domains shown, Humanized, human IgG1/kappa: Hu29B06 Hv4-59 D27G T30S M48I I67V Y78F IgG1 + Sh29B06 Kv2-28 Kappa) VH: QVQLQESGPGLVKPSETLSLTCTVSGGSISSGYWNWIRKPPGKKLEYIGYISYSGKTYYNPSLKSRVTISRDTSKNQFSLKLSSVTAADTAVYYCARSKYDYAMDYWGQGTLVTVSS VL: DIVMTQSPLSLPVTPGEPASISCRASEIVDNFGISFMNWYLQKPGQSPQLLIYAASNQGSGVPDRFSGSGSGTDFTLKISRVEAEDVGVYYCQQSKEVPPTFGGGTKVEIKR	s⁻¹	0.00011
Sh29B06-23 (antibody, human IgG1, kappa, V domains shown, Humanized, human IgG1/kappa: Hu29B06 Hv4-59 IgG1 (CDR graft with back mutations) + Sh29B06 Kv2-28 Kappa) VH: QVQLQESGPGLVKPSETLSLTCTVSGDSITSGYWNWIRKPPGKKLEYMGYISYSGKTYYNPSLKSRITISRDTSKNQYSLKLSSVTAADTAVYYCARSKYDYAMDYWGQGTLVTVSS VL: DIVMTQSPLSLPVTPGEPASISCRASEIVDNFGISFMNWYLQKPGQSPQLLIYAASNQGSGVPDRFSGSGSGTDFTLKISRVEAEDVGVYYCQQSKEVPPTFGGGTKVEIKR	s⁻¹	0.00033
